Assay Details: yeast display, Sf9 membrane polyspecificity reagent, FACS + sequencing; frameworks hold sequencing errors
Recorded Endpoint: polyreactivity (PSR sort gate)

[
  {
    "Sequence Chain": "QVQLVESGGGLVQAGGSLRLSCAASGRIFATNAMGLYRQAPGKERELVATITRSAGRTYYADSVKGRFTISRDNAKNTVYLQMNSLKPEDTAVYYCAASYWDTEPGYREYDYWGQGTQVTVSS",
    "polyreactivity (PSR sort gate)": "low polyreactivity"
  },
  {
    "Sequence Chain": "QVQLVESGGGLVQAGGSLRLSCAASGRIFLRNVMGWYRQAPGKERELVAAISARGGSTYYADSVKGRFTISRDNGKNSVYLQMNSLKPEDTAVYYCAAGYPVSPSKYYYWGQGTQVTVSS",
    "polyreactivity (PSR sort gate)": "high polyreactivity"
  },
  {
    "Sequence Chain": "QVQHVQSGGGLVQAGGSLRLSCAASGSTFPGYAMGWYRQDPGKEREFVAAISTSGGRTYYADSVKGRFTISRDNAKNTVYVQMNSLKPEDTAVYFCNADRYSQYSHSRYDYWGQGTQVTVSS",
    "polyreactivity (PSR sort gate)": "high polyreactivity"
  },
  {
    "Sequence Chain": "QVQLVESGGGLVQAGGSLRLSCAASGFTFSYYAMGWYRQAPAKEREVVAAISRSGGSTYYADSVKGRFTISRDNAKNTVYFQMNSLIPEDTAVYYCATDLYYRHGYCGQGTQVTVSS",
    "polyreactivity (PSR sort gate)": "high polyreactivity"
  },
  {
    "Sequence Chain": "QVQLVESGGGIVQAGGSLRLSSAASGSTFVYNAMGSYRQAPGKERELVASITRSGSSTYYADSVKGRFTISRDNAKNTVYLQMNSLKPEDSAVYYCAVRYYVLSYYRYYYWGQGTQVTVSS",
    "polyreactivity (PSR sort gate)": "low polyreactivity"
  }
]

Batch lookup, polyreactivity (PSR sort gate) per entry.
1. QVQLVESGGGLVQAGGSLRLICAASGRIFGYYTMGRYRQAPGKERELVADNNRDGSTYADSVKGRFTISRDNAKNSVYIQMNSLKPEDTAVYYCIAQYDSAYGLGFFIGYFSQYDYWGQGTQVTVSS
2. QVQLVESGGGLVQAGGSLRLSCAAYGRIFSRYAMGWYRQAPGKERELVAAISSSGTTTYYADSVNGRFTISRDTAKNTVYLQMNSLKPEDTAVYSCATSAVRHIYWGQGTQVTVSS

Key:
1: low polyreactivity; 2: high polyreactivity

Batch lookup, polyreactivity (PSR sort gate) per entry.
1. QVQLVESGGGLVQAGGSLRLSCAASGSTFFFNAMGWYRQAPGKERELVAAITGRSGSTYYADSVKGRFTISRDNAKNTVYLQMNSLKPEDTAVYYCAADFSPWRSDFDYWGQGTQVTVTS
2. QVQLVESGGGLVQAGGSLRLSCAASGSTFRYNTMGWYRQAPGKERELVAAINISSSSTYYADSVKGRFTISRDNAKNTVYLQMNSLKPEDTAVYYCAKRDYVPIATDENDDYWGQGTQVTVSS
3. QDQLVDSGGGLLQAGGSLRLSCAASGFTFWQYAMGWYRQAPGKERELVAAISGSGSSTYYADSEKGRFTISRDNAKNTVYLQMISLQPEYTAVYYCATAISRYGRFYYWGQGTQVTLSS
4. QVQLVESGGGLVQAGGSLRLSCAASGFIFAASALGWSRQAAGKEREFVAAISNSGTSTYYADSVKGRFTISRDNAKNTVYLQMNSLKPEDTAVYYCAAPWSTAYDYWGQGTQVTVSS

Key:
1. low polyreactivity
2. low polyreactivity
3. high polyreactivity
4. high polyreactivity

###

Assay Details: yeast display, Sf9 membrane polyspecificity reagent, FACS + sequencing; frameworks hold sequencing errors
Recorded Endpoint: polyreactivity (PSR sort gate)

[
  {
    "Sequence Chain": "QVQLVESGGGLVQAGGSLRLSCAASGFIFRYNTMGWYRQAPGKERELVATINRSGGSTYYADSVKGRFTISRDNAKNTVYLQMNSLKPEDTAVYYCAARSGTRWRSGYYYWGQGTHVTVSS",
    "Recorded Endpoint": "polyreactivity (PSR sort gate)",
    "Result": "high polyreactivity"
  },
  {
    "Sequence Chain": "QVQLVESGGGLVQAGGSLRLSCAASGGIFGYYAMGWYRQAPGKERELVAAISSSGGSTYYADSVKGRFTISRDNAKNTVYLQMNSLKPEDTAVYYCAAYRKVGGFSRGDYWGQGTQVTVSS",
    "Recorded Endpoint": "polyreactivity (PSR sort gate)",
    "Result": "high polyreactivity"
  }
]

###

Assay Details: yeast display, Sf9 membrane polyspecificity reagent, FACS + sequencing; frameworks hold sequencing errors

[
  {
    "Sequence Chain": "QVQLVESRGGLVQAGGSLRLSCAASGSIFNANAMGWYRQAPGKEREIVAAITRAGGGTYYADSVKGRFTISRVNAKNTVYLQMNRLKPEDTAVYYCAREVFFYASTGQTYGYWGQGTQVTVSS",
    "polyreactivity (PSR sort gate)": "high polyreactivity"
  },
  {
    "Sequence Chain": "QVQLVESGGGLVQAGGSLRLSCAASGRIFGRYAMGWSRQAPGKERELVASISKRGGSTYYADSVKGRFTISRDNAKNTVYLQMNSLKPEDTAVYYCAALFLSHIYYYWGQGTQVTVSS",
    "polyreactivity (PSR sort gate)": "high polyreactivity"
  },
  {
    "Sequence Chain": "QVQLVESGGGLVQAGGSLRLSCAASGRTFRRYAMGWYRQAPGKERELVAAITSGGDTYYADSVKGRFTISRDNAKNTVYLQMNSLKPEDTAVYYCNAASVTRRTGIRAVDFDYWGQGTQVTVSS",
    "polyreactivity (PSR sort gate)": "high polyreactivity"
  }
]

###

Assay Details: yeast display, Sf9 membrane polyspecificity reagent, FACS + sequencing; frameworks hold sequencing errors
Recorded Endpoint: polyreactivity (PSR sort gate)

Previously resolved entries follow.
[
  {
    "Sequence Chain": "QVQLVESGGGLVQAGGSLRLSCDDSGSIFWWYTMGWYRQAPGKERELVAAITWNADGTYYADSVKGRFTISRDNAKNTVYLPINSLKPEDTAVYYCAADQYYLDWGGGYDYWGQGTQLTVSS",
    "Recorded Endpoint": "polyreactivity (PSR sort gate)",
    "Result": "low polyreactivity"
  },
  {
    "Sequence Chain": "QVQLVESGGGLVQAGGSLRLSCAASGYIFSYYTMGWYRQAPGKERELVAAISYSGGSTDYADSVKGRFTISRDNAKNTVYLQMNSLKPEDTAVYYCNADYSFWAKPYWEYGYDYWGQGTQVTVSS",
    "Recorded Endpoint": "polyreactivity (PSR sort gate)",
    "Result": "low polyreactivity"
  },
  {
    "Sequence Chain": "QVQLVESGGGLVQAGGSLRLSCAASGSIFRTNAIGWYRQAPGRERELVAAITGSGGSTYYADSVKGRFTISRDNAKNTVYLQMNSLKPEDTAVYYCAVVGYHRDFDYWGQGTQVTVSS",
    "Recorded Endpoint": "polyreactivity (PSR sort gate)",
    "Result": "low polyreactivity"
  },
  {
    "Sequence Chain": "QVQLVESGGGLVQAGGSLRLSCAASGSTFTGYTMGWYRQAPGKEREFVAAISSRGGSTYYADSVKGRFTISRDNAKNTVFLQMNSLKPEETAVYYCAAKVWARVDGRQFRMEYWGQGTQVTVSS",
    "Recorded Endpoint": "polyreactivity (PSR sort gate)",
    "Result": "high polyreactivity"
  },
  {
    "Sequence Chain": "QVQLVESGGGLVQAGGSLRLSCAASGSILIHYTMGWYRQAPGKERELVAAISSTGGSTYYADSVKGRFTISRDNAKNTVYLQMNSLKPEDTAVYYCNAKQYWYYFWAYQQRDVESDYWGQGTQVTVSS",
    "Recorded Endpoint": "polyreactivity (PSR sort gate)",
    "Result": "low polyreactivity"
  }
]

Batch lookup, polyreactivity (PSR sort gate) per entry.
1. QVQLVESGGGLVQAGGSLRLSCAASGFTFTTYAMGWYRQAPGKEREFVAAITKRGGRTYYADSVKGRFTISRDYAKNTVYVQMNSLKPEDTAVYYCNKVVHSFPFPYRYDMDYWGQGTQVTVSS
2. QVQLVESVGGLVQAGGSLRLSCAASGSTISLYKGWYRQAPGNETELVAAITYSGGRTYYADSVKGRFTISRDNAKNTVYLQMNSLKPEDTAVYYCATVFNDLTVYEYWSRFDYWGQGTQVTVSS
3. QVQLVESGGGLVQAGGSLRLSCADSGFIFVPYAMGWYRQAPGKERELVATITGRGDSTYYADSVKWRFTISRDNALNTVYLQMNSLKTEDTSLFYCAVDPIRLWAYDYWGQGTQVTVSS

Key:
1: high polyreactivity; 2: low polyreactivity; 3: low polyreactivity

Batch lookup, polyreactivity (PSR sort gate) per entry.
1. QVQLVESGGCLVQAGGSLRLSCAASGFTFSSNAMGWYRQAPGKERELVAAISFNSTSTYYADSVKGRFTISRDNAKNTVYLQMNSLKPEDTAVYYCAADVPRVQSEPEYDYWGQGTQVTVSS
2. QVQLVESGGGLVQAGGSLRLSCAASGIIFGYYSMGWYRQAPGKERDLVAAITWSGGSTYYADSVKGRFTISRDYAKNTVYLQMNSLKPEDTAVYYCNALGWYGDYDYWGQGTQVTVSS
3. QVQLVESGGGLVQAGGSLRLSCAASGSIFYGYDMGWYRQAPGKERELVAAITIGGGTTYYADSVKGRFTISRDNAKNTVYLQMNSLKPEDTAVYYCAAEFYYTIYSNKVGYDYWGQGTQVSVSS

Key:
1: low polyreactivity; 2: low polyreactivity; 3: high polyreactivity

Batch lookup, polyreactivity (PSR sort gate) per entry.
1. QVQLVESGGGLVQAGGSLRLSCAASGSTFVGNAMGWYRQAPGKERELVAAITGGGGSTYYADSVKGRFTISRDNAKNTVYLQMNSLKPEDTAVYSCARDRTDYYVWYVRYYYWGQGTQVTVSS
2. QVQLVESGGGLVQAGGSLRLTCAASGSTFRGNTMGWSRQAPGKERELVAAISWDGGTTYYADSVKGRFTISRDNAKNTVYLQMNCLKPEDTAVYYCAADWTGQEYEYWGQGTQVTVSS
3. QVQLVESGGGLVQAGGSLRLSCAASGFNFVGNAMGWYRQAPGKERELVADITGSDGSTYYADSVKGRFTISRDNAKNTVYLQMNSLKPEDTAVYYCAASPPYKLVWWRRMDYWGQGTQVTVSS
4. QVQLVESGGGLFQAGGSLRLSCAASGFTFRANAMGWYRQAPGKERELVAVITGSGRTYYADSVKGRFTISRDNAKNTVYLQMNSLKPEDTAVYYCAARAAYRVSSPGYDSWGQGTQVTVSS
5. QVQLVESGGGLVQAGGSLRLSCAASGSIFYVYAMGWYRQAPGKVRELVAAITSSGTTNYADSVKGSFTISRDNAKNTVYLKMNSLKPEDTAVDSCAADPDSGQVPFDYLGQGTQVTVSS
6. QVQLVESGGGLVQAGGSLRLSCAASGFTFRGNAMGWYRQAPGKERELVAAITWNGGSTYYADSVKGRFTISRDNAKNTVYLQMNSLKPEDTAVYYCAAQYGKKRQPRFNYWGQGTQVTVSS
7. QVQLVESGGGLVQAGGSLRLSCAASGIIFSYNAMGWYRQAPGKERELVAAITSIGGRTYYADSVKGRFTISRDNAKNTVYLKMNSLKPEDCAVYYCAVVAAFYNSPEGDYWGQGTQVTVSS

Key:
low polyreactivity
low polyreactivity
low polyreactivity
high polyreactivity
low polyreactivity
high polyreactivity
low polyreactivity

Batch lookup, polyreactivity (PSR sort gate) per entry.
1. QVQLVESGGGLVQAGGSLRLSCAASGFTFRWYAIGWYSQAPGKEREFVATISTRGGNTYYADSVKGRFTISRDNAKNTVYLQMNSLKPEDTAVYYSAAVGYAAYHRMDYWGQGTQVNVSS
2. QVQLVESGGGLVQAGGSLRLSCAASGFTFYKYAMGWYRQAPGKERELVAGIRRGGTNYADSVKGRFTISRDNAKNTVYLQMNSLKPEDTAVYYCAADVRPYYSAYRGRYYYWGQGTQVTVSS
3. QVQLVESGGGLVQAGGSLRLSCAASGRIFTRYAMGWYRQAPGKERELVSAISSGGSTYYADSVKGRFTISRDNAKNTVYLQMNSLKPEDTAVYYCAAKTRPQRTYSTRQQMNYWGQGTQVTVSS

Key:
["high polyreactivity", "high polyreactivity", "high polyreactivity"]

Where do the numbers come from? From the nanobody polyreactivity screen of Harvey et al. (2022).
